- Assay Target: CYP2C9 (Homo sapiens, UniProt P11712)
- Sequence (P11712 whole entry, canonical isoform): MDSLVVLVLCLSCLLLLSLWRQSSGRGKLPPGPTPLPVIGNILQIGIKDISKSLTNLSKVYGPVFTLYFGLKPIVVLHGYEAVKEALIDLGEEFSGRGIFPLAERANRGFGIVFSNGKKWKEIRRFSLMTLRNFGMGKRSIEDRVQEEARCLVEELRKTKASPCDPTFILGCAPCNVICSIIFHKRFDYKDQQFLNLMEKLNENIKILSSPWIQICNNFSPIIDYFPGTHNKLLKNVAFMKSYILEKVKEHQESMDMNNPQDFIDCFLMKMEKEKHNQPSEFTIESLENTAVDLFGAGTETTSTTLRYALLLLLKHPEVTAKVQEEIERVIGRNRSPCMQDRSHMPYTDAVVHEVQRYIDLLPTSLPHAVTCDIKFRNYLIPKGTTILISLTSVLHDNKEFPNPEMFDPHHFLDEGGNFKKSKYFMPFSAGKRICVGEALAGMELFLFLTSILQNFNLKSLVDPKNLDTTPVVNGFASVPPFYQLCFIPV
- Assay Summary: CYP isoform inhibition in human liver microsomes (Cyprotex)
- Reported Conditions: human, human liver microsomes
Non-standard residues stand in square brackets, D forms with d. Residues, ends and D or L forms follow the SMILES beside them.

Compound	inhibition at 0.25 µM / %
CC(C)C[C@@H](NC(=O)[C@H](NC(=O)[C@H]1CCCN1)[C@H](C)O)C(=O)N[C@H](Cc1c[nH]cn1)C(=O)N[C@@H](C(=O)N[C@H](Cc1c[nH]cn1)C(=O)N[C@H](CC(N)=O)C(=O)N[C@H](CCCNC(=N)N)C(=O)N[C@H](CCCNC(=N)N)C(=O)N[C@H](CCCNC(=N)N)C(=O)N[C@H](CCCNC(=N)N)C(=O)N[C@H](CCCNC(=N)N)C(N)=O)[C@H](C)O [RD2, ptlhthnrrrrr] (H-[dP][dT][dL][dH][dT][dH][dN][dR][dR][dR][dR][dR]-NH2)	6.15
